meta.source: patent US8552208B2

Record form. Attribute: MBC. Fill in for each entry.
# Tested on: MSSA (ATCC 25293) biofilm
# MEASUREMENT NOTES: Calgary Biofilm Device anti-biofilm activity
# Format: cell-based
# MEASUREMENT SETUP: Staphylococcus aureus, MSSA biofilm; triplicate runs listed singly; read-out: MBEC = Minimum Biofilm Eradication Concentration
Lab book: enter the figure in µg/mL, no units written.

For reference, reported MBC for CC(C)=CCCC(C)CCN1C(=O)/C(=C(/C)O)C(=O)[C@@H]1CC(C)C (stereo partly shown) [Compound 13m] stands at 200

For reference, reported MBC for CCCCCCCCCCN1C(=O)/C(=C(/C)O)C(=O)[C@@H]1C(C)C [Compound 13i] stands at 100

For reference, reported MBC for CCCCCCCCCCN1C(=O)/C(=C(/C)O)C(=O)[C@@H]1CC(C)C [Compound 13b] stands at 100

For reference, reported MBC for C/C(O)=C1\C(=O)[C@H](CC(C)C)N(Cc2ccc(-c3ccccc3)cc2)C1=O [Compound 13k] stands at 100

For reference, reported MBC for CO[C@H]1/C=C/O[C@@]2(C)Oc3c(C)c(O)c4c(O)c(c(/C=N/N5CCN(C)CC5)c(O)c4c3C2=O)NC(=O)/C(C)=C\C=C\[C@H](C)[C@H](O)[C@@H](C)[C@@H](O)[C@@H](C)[C@H](OC(C)=O)[C@@H]1C [Rifampicin, rifampicin, reference compound] stands at 100

* * *

# Test system: MRSA (ATCC 35391) biofilm
# MEASUREMENT NOTES: Calgary Biofilm Device anti-biofilm activity
# Type: cell-based, Staphylococcus aureus
# MEASUREMENT SETUP: Staphylococcus aureus, MRSA biofilm; triplicate runs listed singly; read-out: MBEC = Minimum Biofilm Eradication Concentration
QUANTITY NAME: MBC (µg/mL)
Lab book: enter the figure in µg/mL, no units written.

Noted MBC for C/C(O)=C1\C(=O)[C@H](CC(C)C)N(Cc2ccc(-c3ccccc3)cc2)C1=O [Compound 13k] , tested on MRSA (ATCC 35391) biofilm: 100

Noted MBC for CC(C)=CCCC(C)CCN1C(=O)/C(=C(/C)O)C(=O)[C@@H]1CC(C)C (some centres unmarked) [Compound 13m] , tested on MRSA (ATCC 35391) biofilm: 50

Noted MBC for CCCCCCCCCCN1C(=O)/C(=C(/C)O)C(=O)[C@@H]1C(C)C [Compound 13i] , tested on MRSA (ATCC 35391) biofilm: 25

* * *

# Tested on: Enterococcus faecalis ATCC 33186
# MEASUREMENT NOTES: Antibacterial activity assay (MIC, broth dilution)
# Assay type: cell-based
# MEASUREMENT SETUP: ATCC33186; Enterococcus faecalis ATCC 33186; read-out: MIC, EF
Record form. Attribute: MIC. Fill in for each entry.
Lab book: enter the figure in µg/mL, no units written.

For reference, reported MIC for C/C(O)=C1\C(=O)[C@H](Cc2ccccc2)N(Cc2ccccc2)C1=O [Compound 13c] stands at 100

For reference, reported MIC for C/C(O)=C1\C(=O)[C@@H](CC(C)C)N(Cc2ccc(F)cc2)C1=O [Compound 13f] stands at 50

For reference, reported MIC for CCCCCCCCCCN1C(=O)/C(=C(/C)O)C(=O)[C@H]1CC(C)C [Compound 13o] stands at 1.6

For reference, reported MIC for CCCCN1C(=O)/C(=C(/C)O)C(=O)[C@@H]1CC(C)C [Compound 13j] stands at 1.6

For reference, reported MIC for CCCCCCCCCCN1C(=O)C(C#N)=C(O)[C@@H]1CC(C)C [Compound 12b] stands at 25

For reference, reported MIC for C/C(O)=C1\C(=O)[C@@H](Cc2ccccc2)N(Cc2ccccc2)C1=O [Compound 13g] stands at 100

For reference, reported MIC for C/C(O)=C1\C(=O)[C@H](CC(C)C)N(Cc2ccc(F)cc2)C1=O [Compound 13e] stands at 50

* * *

# System: Enterococcus faecalis ATCC 33186
# MEASUREMENT NOTES: Antibacterial activity assay (MIC, broth dilution)
# Type: cell-based
# MEASUREMENT SETUP: ATCC33186; Enterococcus faecalis ATCC 33186; read-out: MIC, EF
Record form. Attribute: MIC. Fill in for each entry.
Lab book: enter the figure in µg/mL, no units written.

For reference, reported MIC for CC(C)=CCCC(C)CCN1C(=O)/C(=C(/C)O)C(=O)[C@@H]1CC(C)C (stereo partly drawn) [Compound 13m] stands at 0.8

For reference, reported MIC for CCC(C)[C@H]1C(O)=C(C#N)C(=O)N1Cc1ccco1 (stereo partly drawn) [Compound 12p] stands at 3.12

For reference, reported MIC for CCCCCCCCCCN1C(=O)/C(=C(/C)O)C(=O)[C@@H]1CC(C)C [Compound 13b] stands at 1.6

For reference, reported MIC for CCCCCCCCCCN1C(=O)/C(=C(/C)O)C(=O)[C@@H]1Cc1ccccc1 [Compound 13n] stands at 0.8

For reference, reported MIC for CCCCCCCCCCN1C(=O)/C(=C(/C)O)C(=O)[C@@H]1C(C)C [Compound 13i] stands at 0.8

* * *

# Test system: Enterococcus faecalis ATCC 33186
# MEASUREMENT NOTES: Antibacterial activity assay (MIC, broth dilution)
# Type: cell-based
# MEASUREMENT SETUP: ATCC33186; Enterococcus faecalis ATCC 33186; read-out: MIC, EF
QUANTITY NAME: MIC (µg/mL)
Lab book: enter the figure in µg/mL, no units written.

For reference, reported MIC for COc1cccc(CN2C(=O)/C(=C(/C)O)C(=O)[C@@H]2CC(C)C)c1 [Compound 13d] stands at 100

For reference, reported MIC for CCC(C)[C@H]1C(=O)/C(=C(\C)O)C(=O)N1Cc1ccccc1 (stereo partly shown) [Compound 13a] stands at 6.25

For reference, reported MIC for C/C(O)=C1\C(=O)[C@H](CC(C)C)N(Cc2ccc(-c3ccccc3)cc2)C1=O [Compound 13k] stands at 0.8

* * *

# System: clinical isolates of MRSA (methicillin resistant S. aureus)
# Assay type: cell-based
# MEASUREMENT SETUP: isolate MRSA-4
QUANTITY NAME: Antibiotic MIC
Please give the number followed by its unit.

For reference, reported Antibiotic MIC for CCCCCCCCCCN1C(=O)/C(=C(/C)O)C(=O)[C@@H]1Cc1ccccc1 [Compound 13n] stands at 0.8 µg/mL

For reference, reported Antibiotic MIC for CCCCN1C(=O)/C(=C(/C)O)C(=O)[C@@H]1CC(C)C [Compound 13j] stands at 25 µg/mL

For reference, reported Antibiotic MIC for C/C(O)=C1\C(=O)[C@H](CC(C)C)N(CC2=CCC3CC2C3(C)C)C1=O (some centres unmarked) [Compound 13l] stands at 3.12 µg/mL

For reference, reported Antibiotic MIC for CCCCCCCCCCN1C(=O)/C(=C(/C)O)C(=O)[C@@H]1CC(C)C [Compound 13b] stands at 0.8 µg/mL

For reference, reported Antibiotic MIC for C/C(O)=C1\C(=O)[C@H](CC(C)C)N(Cc2ccc(-c3ccccc3)cc2)C1=O [Compound 13k] stands at 1.6 µg/mL

* * *

# Tested on: clinical isolates of MSSA (methicillin sensitive S. aureus)
# Format: cell-based
# MEASUREMENT SETUP: isolate MSSA-18
QUANTITY NAME: Antibiotic MIC (µg/mL)
Lab book: enter the figure in µg/mL, no units written.

For reference, reported Antibiotic MIC for CCCCN1C(=O)/C(=C(/C)O)C(=O)[C@@H]1CC(C)C [Compound 13j] stands at 6.25

For reference, reported Antibiotic MIC for CCCCCCCCCCN1C(=O)/C(=C(/C)O)C(=O)[C@@H]1CC(C)C [Compound 13b] stands at 0.4

For reference, reported Antibiotic MIC for C/C(O)=C1\C(=O)[C@H](CC(C)C)N(Cc2ccc(-c3ccccc3)cc2)C1=O [Compound 13k] stands at 0.8

For reference, reported Antibiotic MIC for CCCCCCCCCCN1C(=O)/C(=C(/C)O)C(=O)[C@@H]1Cc1ccccc1 [Compound 13n] stands at 0.8

* * *

# Tested on: Mycobacterium tuberculosis H37 Rv
# MEASUREMENT NOTES: Antibacterial activity assay (MIC, broth dilution)
# Format: cell-based
# MEASUREMENT SETUP: H37RV, 168 h; Mycobacterium tuberculosis H37 Rv; […]; read-out: MIC, TB
QUANTITY NAME: MIC (µg/mL)
Lab book: enter the figure in µg/mL, no units written.

Noted MIC for CCCCCCCCCCN1C(=O)/C(=C(/C)O)C(=O)[C@@H]1Cc1ccccc1 [Compound 13n] , tested on Mycobacterium tuberculosis H37 Rv: 50

Noted MIC for C/C(O)=C1\C(=O)[C@H](CC(C)C)N(Cc2ccc(-c3ccccc3)cc2)C1=O [Compound 13k] , tested on Mycobacterium tuberculosis H37 Rv: 50

Noted MIC for COc1cccc(CN2C(=O)/C(=C(/C)O)C(=O)[C@@H]2CC(C)C)c1 [Compound 13d] , tested on Mycobacterium tuberculosis H37 Rv: 100

Noted MIC for C/C(O)=C1\C(=O)[C@@H](CC(C)C)N(Cc2ccc(F)cc2)C1=O [Compound 13f] , tested on Mycobacterium tuberculosis H37 Rv: 100

Noted MIC for CC(C)=CCCC(C)CCN1C(=O)/C(=C(/C)O)C(=O)[C@@H]1CC(C)C (stereo partly drawn) [Compound 13m] , tested on Mycobacterium tuberculosis H37 Rv: 200

Noted MIC for CCC(C)[C@H]1C(=O)/C(=C(\C)O)C(=O)N1Cc1ccccc1 (stereo partly drawn) [Compound 13a] , tested on Mycobacterium tuberculosis H37 Rv: 50

Noted MIC for CCCCCCCCCCN1C(=O)/C(=C(/C)O)C(=O)[C@H]1CC(C)C [Compound 13o] , tested on Mycobacterium tuberculosis H37 Rv: 25

Noted MIC for CCCCCCCCCCN1C(=O)/C(=C(/C)O)C(=O)[C@@H]1C(C)C [Compound 13i] , tested on Mycobacterium tuberculosis H37 Rv: 12.5

Noted MIC for C/C(O)=C1\C(=O)[C@H](CC(C)C)N(Cc2ccc(F)cc2)C1=O [Compound 13e] , tested on Mycobacterium tuberculosis H37 Rv: 100

Noted MIC for CCCCN1C(=O)/C(=C(/C)O)C(=O)[C@@H]1CC(C)C [Compound 13j] , tested on Mycobacterium tuberculosis H37 Rv: 100
